Entry source: patent US20230414780A1

Target: T1, mouse TfR ectodomain fused to a mouse IgG1 Fc fragment (mouse, UniProt Q62351 89-763)
T1 construct: extracellular domain; not shown: mouse IgG1 Fc fragment
T1 sequence (Q62351 89-763): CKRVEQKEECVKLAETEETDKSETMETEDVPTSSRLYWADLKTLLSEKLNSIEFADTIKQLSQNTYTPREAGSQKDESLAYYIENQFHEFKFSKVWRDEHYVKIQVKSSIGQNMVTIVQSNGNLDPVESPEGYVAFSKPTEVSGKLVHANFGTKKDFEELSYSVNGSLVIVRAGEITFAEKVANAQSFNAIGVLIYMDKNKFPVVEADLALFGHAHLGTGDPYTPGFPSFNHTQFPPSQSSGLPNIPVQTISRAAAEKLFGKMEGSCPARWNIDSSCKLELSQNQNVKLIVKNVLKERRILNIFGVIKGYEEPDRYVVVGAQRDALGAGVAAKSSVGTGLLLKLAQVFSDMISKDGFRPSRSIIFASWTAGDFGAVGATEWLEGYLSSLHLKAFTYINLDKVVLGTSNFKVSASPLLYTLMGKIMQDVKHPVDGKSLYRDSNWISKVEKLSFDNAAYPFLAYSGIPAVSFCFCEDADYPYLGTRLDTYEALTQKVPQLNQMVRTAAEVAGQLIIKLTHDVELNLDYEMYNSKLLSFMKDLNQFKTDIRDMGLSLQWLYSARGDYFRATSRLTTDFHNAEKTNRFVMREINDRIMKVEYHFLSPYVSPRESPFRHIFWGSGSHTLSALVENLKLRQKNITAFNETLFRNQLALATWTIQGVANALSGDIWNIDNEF
Assay: SPR, kinetic
Below, each of the binders is paired with its reported kon value.
Report field: quantity (unit follows the number).

Examples from the recorded data:
C5^V29 (VHH) VHH: EVQLVESGGGVVQPGGSLKLSCVASGADFSINFIRWYRQAPGKQREFVAGFTATGHTNYADSMKGRFTISRDNTKNAVYLQIDSLKPEDTAVYYCYMLDKWGQGTQVTVSS = 472000 M⁻¹ s⁻¹
C5^h18 (VHH) VHH: EVQLVESGGGVVQPGGSLKLSCVASGTDFSINFIRWYRQAPGKGLEFVAGFTATGNTNYADSVKGRFTISRDNAKNTLYLQMNSLRPEDTAVYYCYMLDKWGQGTQVTVSS = 816000 M⁻¹ s⁻¹
C5^V27 (VHH) VHH: EVQLVESGGGVVQPGGSLKLSCVASGADFSINYIRWYRQAPGKQREFVAGFTATGNTNYADSMKGRFTISRDNTKNAVYLQIDSLKPEDTAVYYCYMLDKWGQGTQVTVSS = 493000 M⁻¹ s⁻¹
VHH D (H3) (VHH) VHH: EVQLVESGGGEVQPGGSLKLSCVASGTDFSINFVRWYRQRPGKQREWVAGFTANGDTNYPDSMKGRFTISRDNAKNTVYLQINSLKSEDTAVYYCYMLDNWGQGTQVTVSS = 581000 M⁻¹ s⁻¹
VHH A9 (C5^V9) (VHH) VHH: EVQLVESGGGVVQPGGSLKLSCVASGTDFSINFIRWYRQAPGKQREFVAGFTATGNTNYADSMKGRFTISRDNTKNAVYLQIDSLKPEDTAVYYCYMLDAWGQGTQVTVSS = 524000 M⁻¹ s⁻¹

Ask: Item under review: VHH A15 (C5^V15) (VHH) VHH: EVQLVESGGGVVQPGGSLKLSCVASGTDFSINFIRWYRQAPGKQREFVAGFTATGNTNYADSMKGRFTISRDNTKNAVYLQIDSLKPEDTAVYYCFMLDKWGQGTQVTVSS . Reported kon?
Result: 797000 M⁻¹ s⁻¹
